# Assay procedure: Biodistribution studies of 11C tracers
# Type: in vivo, Wistar rats
# Experimental conditions: 60 min p.i.
So I've got a bunch of compounds here, and I need their % ID Hippocampus values.
Write down the numeric answer in % ID and omit the unit.

Looking up [11CH3]Oc1ccc(F)cc1C1CCN(c2ccn3c(CC4CC4)nnc3c2Cl)CC1 [[^11C]B-4] , I see its % ID Hippocampus listed as 0.021

Looking up [11CH3]Oc1ccc(F)c(F)c1C1CCN(c2ccn3c(CC4CC4)nnc3c2Cl)CC1 [[^11C]B-10] , I see its % ID Hippocampus listed as 0.026

Looking up [11CH3]Oc1cccc(F)c1C1CCN(c2ccn3c(CC4CC4)nnc3c2Cl)CC1 [[^11C]B-6] , I see its % ID Hippocampus listed as 0.024

Looking up [11CH3]Oc1c(F)ccc(F)c1C1CCN(c2ccn3c(CC4CC4)nnc3c2C(F)(F)F)CC1 [[^11C]B-3] , I see its % ID Hippocampus listed as 0.023

Looking up [11CH3]Oc1c(F)ccc(F)c1C1CCN(c2ccn3c(CC4CC4)nnc3c2Cl)CC1 [[^11C]B-2] , I see its % ID Hippocampus listed as 0.024

Looking up [11CH3]Oc1cc(F)cc(F)c1C1CCN(c2ccn3c(CC4CC4)nnc3c2Cl)CC1 [[^11C]B-7] , I see its % ID Hippocampus listed as 0.022

These data points were gathered from patent US20130230459A1.
